Molecular target: hP2X2/3 (Homo sapiens, UniProt P56373+Q9UBL9)
Sequence (P56373 1-397): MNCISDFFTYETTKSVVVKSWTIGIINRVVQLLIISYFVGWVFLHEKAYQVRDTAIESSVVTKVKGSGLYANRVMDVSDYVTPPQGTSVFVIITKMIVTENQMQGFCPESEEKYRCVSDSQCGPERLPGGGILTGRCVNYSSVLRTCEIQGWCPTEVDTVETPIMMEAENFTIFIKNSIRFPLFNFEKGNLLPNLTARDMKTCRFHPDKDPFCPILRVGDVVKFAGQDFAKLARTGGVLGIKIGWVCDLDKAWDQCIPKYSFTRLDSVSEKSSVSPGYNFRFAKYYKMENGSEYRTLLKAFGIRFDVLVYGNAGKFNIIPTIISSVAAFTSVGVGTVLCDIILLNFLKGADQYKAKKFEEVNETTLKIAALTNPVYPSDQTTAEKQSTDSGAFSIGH
Sequence (Q9UBL9 1-471): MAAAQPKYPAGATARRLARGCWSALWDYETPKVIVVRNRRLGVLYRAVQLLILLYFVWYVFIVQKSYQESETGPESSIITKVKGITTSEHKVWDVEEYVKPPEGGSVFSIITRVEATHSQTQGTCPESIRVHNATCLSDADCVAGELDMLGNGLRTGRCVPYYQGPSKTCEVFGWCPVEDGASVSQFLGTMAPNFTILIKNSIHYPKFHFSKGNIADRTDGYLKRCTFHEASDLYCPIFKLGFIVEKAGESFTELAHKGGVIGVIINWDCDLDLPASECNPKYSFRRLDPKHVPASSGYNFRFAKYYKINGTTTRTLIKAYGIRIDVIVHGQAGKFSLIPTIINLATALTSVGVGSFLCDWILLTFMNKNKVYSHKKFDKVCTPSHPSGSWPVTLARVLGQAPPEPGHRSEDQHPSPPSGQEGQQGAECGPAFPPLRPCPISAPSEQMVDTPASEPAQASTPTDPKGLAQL
Assay: FLIPR intracellular calcium assay, hP2X2/3
Details: human P2X2/3-TRex293 cells, agonist at EC75
pIC50: −log10 of the molar value.
Attribute Measured: pIC50

[in] Consider the compound shown here: NC(=O)N1CCN(c2nc(N[C@@H](c3cnc4ccccc4c3)C3CC3)c3c(cnn3C3CCOCC3)n2)CC1 What is its recorded pIC50?
[out] 5.00 to 6.00

[in] Lookup CC[C@H](C)n1ncc2nc(N3CCN(C(N)=O)CC3)nc(N[C@@H](c3cnc4ccccc4c3)C3CC3)c21
[out] 7.00 to 9.00

[in] Lookup CC(=O)N1CCN(c2nc(N[C@H](C)c3cnc4ccccc4c3)c3nn(C(C)C)c(Br)c3n2)CC1
[out] 5.00 to 6.00

[in] Lookup CCC(C)n1ncc2nc(N3CCN(C(N)=O)CC3)nc(N[C@H](C)c3cnc4ccccc4c3)c21 (stereo partly drawn)
[out] 6.00 to 7.00

[in] Lookup CCC(C)n1ncc2nc(N3CCN(C(N)=O)CC3)nc(N[C@@H](c3cnc4ccccc4c3)C3CC3)c21 (stereo partly drawn)
[out] 7.00 to 9.00

[in] Lookup CCC(CC)n1ncc2nc(N3CCN(C(C)=O)CC3)nc(NC(C)c3ccc4occc4c3)c21 (stereo not drawn)
[out] 5.00 to 6.00

Recorded values, source patent US11339169B2.
